Assay: in vitro
Conditions: human, primary hepatocytes
Description: Cytotoxicity against human primary hepatocytes assessed as cell viability at 30 uM measured after 2 hrs by trypan blue assay relative to control
property name: viability at 2 h, 30 µM (%)
Give the number; % is assumed, so skip it.

Input: Bench note: what viability at 2 h, 30 µM did COc1cccc(C2c3ccc4cccnc4c3Oc3nc4c(c(N)c32)CCCC4)c1 (stereo unspecified) show?
Output: 99

---

Target: UniProtKB P22303
Experiment: Non-competitive inhibition of recombinant human AChE expressed in HEK293 cells using varying levels of acetylthiocholine iodide as substrate pretreated for 5 mins followed by substrate addition measured after 5 mins by Lineweaver-burk plot analysis
property name: pKi
Lab note: report pKi as minus log10 of the concentration in molar units, number only.

Input: Bench note: what pKi did COc1cccc(C2c3ccc4cccnc4c3Oc3nc4c(c(N)c32)CCCC4)c1 (stereo unspecified) show?
Output: 6.06

---

Here the recorded pIC50 is given for each entry.
Target: Acetylcholinesterase (Homo sapiens, UniProt P22303)
Sequence (P22303 whole entry): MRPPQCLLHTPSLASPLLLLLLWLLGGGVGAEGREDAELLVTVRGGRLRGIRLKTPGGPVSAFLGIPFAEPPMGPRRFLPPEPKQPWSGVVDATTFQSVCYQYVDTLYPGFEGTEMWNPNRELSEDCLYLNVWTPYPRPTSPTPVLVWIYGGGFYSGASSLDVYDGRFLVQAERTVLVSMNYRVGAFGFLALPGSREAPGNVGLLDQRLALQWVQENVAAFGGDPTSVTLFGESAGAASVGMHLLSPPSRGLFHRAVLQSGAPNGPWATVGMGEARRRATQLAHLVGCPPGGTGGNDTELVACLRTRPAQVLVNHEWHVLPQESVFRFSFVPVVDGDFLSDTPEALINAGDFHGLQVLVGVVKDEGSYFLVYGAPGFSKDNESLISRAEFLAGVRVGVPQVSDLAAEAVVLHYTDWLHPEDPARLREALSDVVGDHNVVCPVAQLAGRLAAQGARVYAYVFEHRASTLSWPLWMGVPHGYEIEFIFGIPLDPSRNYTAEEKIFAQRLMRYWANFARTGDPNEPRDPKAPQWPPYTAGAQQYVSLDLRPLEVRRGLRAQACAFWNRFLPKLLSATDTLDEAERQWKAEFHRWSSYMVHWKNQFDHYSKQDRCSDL
Assay: Inhibition of recombinant human AChE expressed in HEK293 cells using acetylthiocholine iodide as substrate pretreated for 5 mins followed by substrate addition measured after 5 mins by spectrophotometry based Ellman method
Details: read-out: IC50
Lab note: report pIC50 as minus log10 of the concentration in molar units, number only.

Observe how each entry below is paired with its result.
COc1ccc(C2c3ccc4cccnc4c3Oc3nc4c(c(N)c32)CCCC4)cc1 (stereo not drawn) | 5.82
Cc1ccc(C2c3ccc4cccnc4c3Oc3nc4c(c(N)c32)CCCC4)cc1 (stereo not drawn) | 5.55

Okay, next one:
Input: Bench note: what pIC50 did Nc1c2c(nc3c1C(c1cccc(F)c1)c1ccc4cccnc4c1O3)CCCC2 (stereo not drawn) show?
Output: 5.66
